# Tgt: HIV-1 JRFL envelope glycoprotein (Env) (HIV-1)
# Assay: cell-based or functional assay
Measured metric: IC50 neutralization

Reported IC50 neutralization ( PGT-135 (antibody, V domains shown) VH: QLQMQESGPGLVKPSETLSLSCTVSGDSIRGGEWGDKDYHWGWVRHSAGKGLEWIGSIHWRGTTHYKESLRRRVSMSIDTSRNWFSLRLASVTAADTAVYFCARHRHHDVFMLVPIAGWFDVWGPGVQVTVSS VL: EIVMTQSPDTLSVSPGETVTLSCRASQNINKNLAWYQYKPGQSPRLVIFETYSKIAAFPARFVASGSGTEFTLTINNMQSEDVAVYYCQQYEEWPRTFGQGTKVDIK ) = > 10 µg/mL

Please fill in: IC50 neutralization reported for PGT-125 (antibody, V domains shown) VH: QSQLQESGPRLVEASETLSLTCNVSGESTGACTYFWGWVRQAPGKGLEWIGSLSHCQSFWGSGWTFHNPSLKSRLTISLDTPKNQVFLKLTSLTAADTATYYCARFDGEVLVYNHWPKPAWVDLWGRGIPVTVSS VL: QSALTQPPSASGSPGQSITISCNGTATNFVSWYQQFPDKAPKLIIFGVDKRPPGVPDRFSGSRSGTTASLTVSRLQTDDEAVYYCGSLVGNWDVIFGGGTTLTVL = 0.0156 µg/mL

Data provenance is patent US20200024330A1.
